Target: Cytochrome P450 2D6 (Homo sapiens) (UniProt P10635)
Sequence (P10635 whole entry, looked up): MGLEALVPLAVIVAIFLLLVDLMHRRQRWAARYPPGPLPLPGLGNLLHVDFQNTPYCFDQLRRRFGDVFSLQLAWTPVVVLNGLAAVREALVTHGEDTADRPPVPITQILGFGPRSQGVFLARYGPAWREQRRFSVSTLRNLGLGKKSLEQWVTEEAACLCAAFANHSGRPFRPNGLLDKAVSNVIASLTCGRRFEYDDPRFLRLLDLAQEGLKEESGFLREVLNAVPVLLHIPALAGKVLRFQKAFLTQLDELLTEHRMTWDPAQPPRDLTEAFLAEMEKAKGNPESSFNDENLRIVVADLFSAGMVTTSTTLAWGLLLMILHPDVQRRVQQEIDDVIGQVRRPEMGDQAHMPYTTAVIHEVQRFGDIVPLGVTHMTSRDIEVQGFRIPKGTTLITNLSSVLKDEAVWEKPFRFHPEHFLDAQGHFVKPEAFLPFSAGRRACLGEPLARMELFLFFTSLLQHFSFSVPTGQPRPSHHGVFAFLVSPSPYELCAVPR
Test: Cytochrome panel assay with activity outcomes
Conditions: recombinant CYP, pro-luciferin dealkylation, luminescence, p450-cyp2d6; series mostly up to 57.1 µM
Among all 16,000 compounds or so, about 2,600 (16%) were called active. Inconclusive results (about 20%) are left out. Only a sample is shown.
Quantity Measured: AC50

1. Cc1cc(NC(=O)c2ccc(S(=O)(=O)N(C)C)cc2)n(-c2ccccn2)n1 : inactive
2. COc1ccc(-c2nnn(CC(=O)N(CC(=O)NCCC(C)C)Cc3cccs3)n2)cc1OC : 11.2 µM (active)
3. CCCCSc1ccc2nc(-c3ccc(C#N)cc3)cn2c1 : inactive

---

Target: Cytochrome P450 2D6 (Homo sapiens) (UniProt P10635)
Test: Cytochrome panel assay with activity outcomes
Details: recombinant CYP, pro-luciferin dealkylation, luminescence, p450-cyp2d6; series mostly up to 57.1 µM
In all, about 16,000 compounds went through this assay and about 2,600 (16%) were called active. Another 20% or so got no clear call; they are omitted. The call rests on the fitted dose curve; in most records, active means well fitted curve in the direction sought with a large enough effect; inconclusive means small, poorly fitted or top-dose-only effect, or effect the other way; inactive means no such curve, though single readings can be large or run the other way. These entries were drawn from the full list.
Your reply should match one of these outcome classes. T for active, F for inactive

For CC(C)N(C(=O)CSc1nc2ccccc2n1-c1ccccc1)C(C)C , which call appears in the assay record?
F

For N#Cc1cccc(-c2cncnc2NCc2cccnc2)c1 , which call appears in the assay record?
F

For CCn1c(C)cc(/C=C2\SC(=O)N(CC(=O)Nc3ccc(C)c(C)c3)C2=O)c1C , which call appears in the assay record?
F

For COc1cccc(-n2ccnc2SCC(=O)Nc2nccs2)c1 , which call appears in the assay record?
T

For CCC(Sc1ncccc1C(=O)O)C(=O)N1CCOCC1 (stereo not drawn) , which call appears in the assay record?
F

For CCCCCCCCC(=O)N/N=C/c1ccccn1 , which call appears in the assay record?
F

For Cn1c(CCNC(=O)c2ccccc2Cl)n[nH]c1=S , which call appears in the assay record?
F

For Cc1noc(C)c1C(=O)N1CCC2(CCCN(Cc3ccccc3)C2)CC1 , which call appears in the assay record?
F

For Cc1cc(C2C(C#N)=C(N)Oc3n[nH]c(C)c32)c(C)s1 (stereo not drawn) , which call appears in the assay record?
F

For N#CCCn1cc(/C=N/O)c(-c2ccc(Cl)cc2)n1 , which call appears in the assay record?
F

For CCc1nc(SCC(=O)c2ccc(Cl)s2)c2oc3ccccc3c2n1 , which call appears in the assay record?
F

For CCOc1cc(/C=N/O)cc(Cl)c1OC , which call appears in the assay record?
F

For O=C(Nc1cccc2nsnc12)c1ccc(-c2cccc(Cl)c2)o1 , which call appears in the assay record?
F

For NC(=NCCCCCCN=C(N)/N=C(\N)Nc1ccc(Cl)cc1)/N=C(\N)Nc1ccc(Cl)cc1 , which call appears in the assay record?
T

For c1cncc(CNc2cc(-c3ccoc3)ncn2)c1 , which call appears in the assay record?
F

For N#Cc1cccc(-c2nc3cnc(Oc4cccc(Cl)c4)nc3n(C3CC3)c2=O)c1 , which call appears in the assay record?
F

For CCOC(=O)/C(C#N)=C1/C=CN(C)C=N1 , which call appears in the assay record?
F

For Cc1cccc(CNc2cc(-c3ccoc3)ncn2)c1 , which call appears in the assay record?
T

For COc1ccc(C(=O)CN2C(=O)NC(C)(c3ccccc3)C2=O)cc1OC (stereo not drawn) , which call appears in the assay record?
F

For COc1ccc(Oc2ncc3nc(C)c(=O)n(-c4ccc(OC)cc4)c3n2)cc1 , which call appears in the assay record?
F

For Cc1cnc(CNc2cc(-c3ccoc3)ncn2)cn1 , which call appears in the assay record?
F

For COC(=O)c1sccc1-c1ccc(C(=O)Nc2cccc(Cl)c2)o1 , which call appears in the assay record?
T

For Cc1cccc(NS(=O)(=O)c2c(C)n[nH]c2C)c1 , which call appears in the assay record?
F

---

Biological target: Cytochrome P450 2D6 (Homo sapiens)
Experiment: Cytochrome panel assay with activity outcomes
Conditions: recombinant CYP, pro-luciferin dealkylation, luminescence, p450-cyp2d6; series mostly up to 57.1 µM
Hit rate of the full screen: of about 16,000 compounds, about 2,600 (16%) were called active. Not shown: some 20% with an inconclusive outcome. Not all results are given here.
Quantity Measured: AC50

Sample answers from the record:
1) CC(=O)N1CC(=O)N(OCc2ccccc2)C1c1ccc(Cl)cc1Cl (centres undefined) : inactive
2) O=C(NCCc1ccccc1)N1c2ccccc2Sc2ccccc21 : 20 µM (active)
3) COc1ccc(C(=O)NC(CO)c2nnc(SCc3ccc(Cl)c(Cl)c3)n2C)cc1 (centres undefined) : inactive
4) OC1(c2ccc(OC(F)F)cc2)CSC(=Nc2cccnc2)N1C1CC1 (centres undefined) : 2 µM (active)
5) CCN(CC)S(=O)(=O)c1ccc2c(c1)nc(SCC(=O)N1CCOCC1)n2-c1ccccc1OC : inactive

Data request, read-out AC50, for Cc1ccc(CS(=O)(=O)CCC(=O)NCCCN2CCCC2)cc1
inactive

Data request, read-out AC50, for O=C(Nc1ccc2nc(SCc3ccc(Cl)cc3)sc2c1)c1ccccc1C(=O)N1CCOCC1
inactive

Data request, read-out AC50, for Cc1ccc(NC(=O)CCC(=O)c2ccc(F)cc2)cc1Cl
inactive

---

Could you please report measured activity, negative = inhibition for the items listed next?
Target: Cytochrome P450 2D6 (Homo sapiens) (UniProt P10635)
Assay: Cytochrome panel assay with activity outcomes; on activity, negative = inhibition: on the % scale 0 is the no-effect control and ±100 the full control effect
Conditions: recombinant CYP, pro-luciferin dealkylation, luminescence, p450-cyp2d6; series mostly up to 57.1 µM
In all, about 16,000 compounds went through this assay and about 2,600 (16%) were called active. Roughly 20% stayed inconclusive and do not appear here. Only a sample is shown.

Notebook entry, Cytochrome P450 2D6 (Homo sapiens) (UniProt P10635) assay: activity, negative = inhibition of O=C(O)CCC(O)=C1S(=O)(=O)OCCOS1(=O)=O = ?
-8.4% [at 11.4 µM] (inactive)

Notebook entry, Cytochrome P450 2D6 (Homo sapiens) (UniProt P10635) assay: activity, negative = inhibition of Cn1c(=O)c2c(nc(NCCNc3nc4c(c(=O)n(C)c(=O)n4C)n3C)n2C)n(C)c1=O = ?
14.2% [at 11.4 µM] (inactive)

Notebook entry, Cytochrome P450 2D6 (Homo sapiens) (UniProt P10635) assay: activity, negative = inhibition of Cc1ccc(S(=O)(=O)O[C@H]2C[C@@H](C(C)(C)C)CC[C@@H]2c2ccccc2)cc1 = ?
-9.43% [at 11.4 µM] (inactive)

Notebook entry, Cytochrome P450 2D6 (Homo sapiens) (UniProt P10635) assay: activity, negative = inhibition of CC(C)CO/N=C1/[C@H]2O[C@@H]2[C@@H](O)[C@H]2[C@H]1CCn1c(=O)n(-c3ccccc3)c(=O)n12 = ?
12.6% [at 11.4 µM] (inactive)

Notebook entry, Cytochrome P450 2D6 (Homo sapiens) (UniProt P10635) assay: activity, negative = inhibition of CC(C)(C)c1cc2c(O)c(c1)Cc1cc(C(C)(C)C)cc(c1O)Cc1cc(C(C)(C)C)cc(c1O)Cc1cc(C(C)(C)C)cc(c1O)Cc1cc(C(C)(C)C)cc(c1O)Cc1cc(C(C)(C)C)cc(c1O)Cc1cc(C(C)(C)C)cc(c1O)Cc1cc(C(C)(C)C)cc(c1O)C2 = ?
12.2% [at 11.4 µM] (inactive)

Notebook entry, Cytochrome P450 2D6 (Homo sapiens) (UniProt P10635) assay: activity, negative = inhibition of COc1ccc(COC(=O)N/N=C2/C[C@@H](O)[C@@H](O)[C@@H]3[C@H]4C(=O)N(c5ccc(F)cc5F)C(=O)[C@@H]4CC[C@H]23)cc1 = ?
-14.9% [at 11.4 µM] (inactive)

Notebook entry, Cytochrome P450 2D6 (Homo sapiens) (UniProt P10635) assay: activity, negative = inhibition of Nc1[nH]c(=S)[nH]c(=O)c1N=Nc1c(Br)cc(S(N)(=O)=O)cc1Br = ?
7.23% [at 11.4 µM] (inactive)

Notebook entry, Cytochrome P450 2D6 (Homo sapiens) (UniProt P10635) assay: activity, negative = inhibition of CC(C)CO/N=C1/C[C@@H](O)[C@@H](O)[C@@H]2[C@@H]3C(=O)N([C@@H](C)c4ccccc4)C(=O)[C@H]3CC[C@@H]12 = ?
17.4% [at 11.4 µM] (inactive)

Notebook entry, Cytochrome P450 2D6 (Homo sapiens) (UniProt P10635) assay: activity, negative = inhibition of O=C(O)c1cc(C(=O)C(=O)c2cc(C(=O)O)c(O)c3ccccc23)c2ccccc2c1O = ?
-0.777% [at 11.4 µM] (inactive)

---

Target: Cytochrome P450 2D6 (Homo sapiens) (UniProt P10635)
Experiment: Cytochrome panel assay with activity outcomes
Settings: recombinant CYP, pro-luciferin dealkylation, luminescence, p450-cyp2d6; series mostly up to 57.1 µM
About 2,600 (16%) of roughly 16,000 compounds were called active. Roughly 20% stayed inconclusive and do not appear here. These entries were drawn from the full list.
Quantity Measured: AC50

1. COc1ccc(-c2nc3cnc(N4CCNCC4)nc3n(Cc3cccs3)c2=O)cc1 : inactive
2. COc1c(F)c(F)c(C(=O)O)c(Nc2ccc(C)cc2)c1F : inactive
3. CC(C)CC(=O)N1CCC(N2CCN(c3ccccc3)CC2)CC1 : inactive
4. CCOc1ccccc1CNCCN1CCOCC1 : 12.6 µM (active)
5. C=C1CC[C@H](O)C/C1=C/C=C1\CCC[C@]2(C)[C@H]1CC[C@H]2[C@@H](C)/C=C\[C@@H](C)C(C)C : inactive
6. CCCSc1nc(C)cc(C)c1C(N)=O : inactive
7. CCN(CC)C(=O)C(=O)N/N=C/c1cccc(Br)c1 : inactive
8. CS(=O)(=O)Nc1cccc(-c2nc(NCc3cccs3)c3ccccc3n2)c1 : 10 µM (active)
9. CCN(CC)C(=O)C1=C(C)NC(=S)NC1c1cn(-c2ccccc2)nc1-c1ccc(Cl)cc1 (stereo unspecified) : inactive
10. O=C(CSCc1cccc(Cl)c1)NCc1ccc2c(c1)OCO2 : 1 µM (active)

Notebook entry, Cytochrome P450 2D6 (Homo sapiens) (UniProt P10635) assay: AC50 of CC[C@](N)(CCC(=O)O)C(=O)O = ?
inactive

Notebook entry, Cytochrome P450 2D6 (Homo sapiens) (UniProt P10635) assay: AC50 of Cn1c(=O)c2c(n(Cc3ccccc3)c1=O)NC(=O)C2CC(=O)NCc1cccc(Cl)c1 (stereo unspecified) = ?
inactive

Notebook entry, Cytochrome P450 2D6 (Homo sapiens) (UniProt P10635) assay: AC50 of Cc1cccc(-n2ncc3c(Nc4c(C)n(C)n(-c5ccccc5)c4=O)ncnc32)c1 = ?
inactive

Notebook entry, Cytochrome P450 2D6 (Homo sapiens) (UniProt P10635) assay: AC50 of CCNc1nnc(-c2ccncc2)s1 = ?
inactive

Notebook entry, Cytochrome P450 2D6 (Homo sapiens) (UniProt P10635) assay: AC50 of CC(C)(C)C(=O)N1CCC(O)(CS(=O)(=O)Cc2ccc(Cl)cc2)CC1 = ?
inactive

Notebook entry, Cytochrome P450 2D6 (Homo sapiens) (UniProt P10635) assay: AC50 of O=C(/C=C/c1cc2c(cc1Br)OCO2)NCc1ccc(Cl)cc1 = ?
inactive

Entry source: PubChem BioAssay AID1851
